method: Intrinsic clearance in rat liver microsomes measured over 40 mins by HPLC/MS analysis
Type: ADME
assay context: read-out: CLH
The threshold is inclusive: microsomal CLint of exactly 100 µL/min/mg counts as Satisfied; values below receive Not satisfied.

In plain terms: is recorded microsomal CLint at least 100 µL/min/mg for COc1cccc(CNC(=O)c2cc(-c3nnn(CC4CCCCO4)n3)cc(C)n2)c1 (single isomer, unassigned; (-)) ? Satisfied

In plain terms: is recorded microsomal CLint at least 100 µL/min/mg for COc1cccc(CNC(=O)c2cc(-c3nnn(C[C@H]4CC[C@H](CO)CC4)n3)cc(C)n2)c1 ? Not satisfied

In plain terms: is recorded microsomal CLint at least 100 µL/min/mg for COc1cccc(CNC(=O)c2cc(-c3nnn(CC4COCCO4)n3)cc(C)n2)c1 (racemic) ? Not satisfied

In plain terms: is recorded microsomal CLint at least 100 µL/min/mg for COc1cccc(CNC(=O)c2cc(-c3nnn(C[C@H]4CO[C@H](CO)CO4)n3)cc(C)n2)c1 (racemic) ? Not satisfied

* * *

system: Organic anion transporter 3 (Homo sapiens)
Sequence (Q8TCC7 whole entry): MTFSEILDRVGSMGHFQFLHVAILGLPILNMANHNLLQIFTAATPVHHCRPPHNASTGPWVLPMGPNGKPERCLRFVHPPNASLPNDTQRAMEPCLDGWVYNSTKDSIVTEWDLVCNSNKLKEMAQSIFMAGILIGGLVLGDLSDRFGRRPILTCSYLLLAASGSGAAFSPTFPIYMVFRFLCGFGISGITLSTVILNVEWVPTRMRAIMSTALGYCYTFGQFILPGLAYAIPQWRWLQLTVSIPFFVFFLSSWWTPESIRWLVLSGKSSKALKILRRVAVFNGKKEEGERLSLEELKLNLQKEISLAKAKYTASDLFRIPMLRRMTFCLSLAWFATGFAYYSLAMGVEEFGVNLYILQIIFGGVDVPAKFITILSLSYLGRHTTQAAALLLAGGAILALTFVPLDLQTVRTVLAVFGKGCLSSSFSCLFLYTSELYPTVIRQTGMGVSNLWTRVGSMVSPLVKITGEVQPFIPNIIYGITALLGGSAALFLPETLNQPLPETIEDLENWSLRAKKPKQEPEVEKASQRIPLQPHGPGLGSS
method: Inhibition of human OAT3 expressed in HEK cells assessed as reduction of [3H]-estrone sulfate uptake by radioactivity counting analysis
property name: pIC50
The value called pIC50 is obtained by taking minus log10 of the concentration in mol/L.

Lab note: measured pIC50 of COc1ccc(CNC(=O)c2cc3c(=O)n(Cc4ccc(C(=O)O)cc4)cnc3cn2)cc1 was 4.23

Lab note: measured pIC50 of Cn1c(=O)n(Cc2ccc(C(=O)O)cc2)c(=O)c2cc(C#CCc3ccccc3)ccc21 was 4.74

Lab note: measured pIC50 of Cc1cc(-c2nnn(C[C@H]3CC[C@H](C(=O)O)CC3)n2)cc(C(=O)NCc2ccc(F)cc2)n1 was 5.22

* * *

method: Clearance in cynomolgus monkey at 1 mg/kg, po and iv
Assay type: ADME, organism-based, Macaca fascicularis
assay context: in vivo
property name: clearance
Dear colleague, please send the value followed by its unit.

Lab note: measured clearance of COc1cc(CNC(=O)c2cc(-c3nnn(C[C@H]4CO[C@H](CO)CO4)n3)nc(C)n2)ccc1F was 2.1 mL/min/kg

* * *

Kindly state Ki for each of the entries shown.

Result for COc1cccc(CNC(=O)c2cc(-c3nnn(C[C@H]4CO[C@H](CO)CO4)n3)cc(C)n2)c1 (racemic) , tested on Stromelysin-1 (Homo sapiens, UniProt P08254), Ki: > 10 µM

Result for COc1cccc(CNC(=O)c2cc(-c3nnn(C[C@H]4CC[C@@H](NS(C)(=O)=O)CC4)n3)cc(C)n2)c1 , tested on Stromelysin-1 (Homo sapiens, UniProt P08254), Ki: > 10 µM

Result for COc1cccc(CNC(=O)c2cc(-c3nnn(CC4CCN(C(C)=O)CC4)n3)cc(C)n2)c1 , tested on Stromelysin-1 (Homo sapiens, UniProt P08254), Ki: > 10 µM

Result for COc1cccc(CNC(=O)c2cc(-c3nnn(C[C@H]4CC[C@H](C(=O)O)CC4)n3)cc(C)n2)c1 , tested on Stromelysin-1 (Homo sapiens, UniProt P08254), Ki: > 10 µM

Result for COc1cccc(CNC(=O)c2cc(-c3nnn(C[C@H]4CC[C@@H](O)CC4)n3)cc(C)n2)c1 , tested on Stromelysin-1 (Homo sapiens, UniProt P08254), Ki: > 10 µM

Result for COc1cccc(CNC(=O)c2cc(-c3nnn(C[C@H]4CC[C@H](O)CC4)n3)cc(C)n2)c1 , tested on Stromelysin-1 (Homo sapiens, UniProt P08254), Ki: > 10 µM

Result for COc1cc(CNC(=O)c2cc(-c3nnn(C[C@H]4CO[C@H](CO)CO4)n3)nc(C)n2)ccc1F , tested on Stromelysin-1 (Homo sapiens, UniProt P08254), Ki: > 10 µM

Result for COc1cccc(CNC(=O)c2cc(-c3nnn(C[C@H]4CC[C@H](CO)CC4)n3)cc(C)n2)c1 , tested on Stromelysin-1 (Homo sapiens, UniProt P08254), Ki: > 10 µM

Result for COc1cccc(CNC(=O)c2cc(-c3nnn(CC4CCCOC4)n3)cc(C)n2)c1 (racemic) , tested on Stromelysin-1 (Homo sapiens, UniProt P08254), Ki: > 10 µM

Result for COc1cccc(CNC(=O)c2cc(-c3nnn(C[C@H]4CC[C@@H](NC(C)=O)CC4)n3)cc(C)n2)c1 , tested on Stromelysin-1 (Homo sapiens, UniProt P08254), Ki: > 10 µM

Result for COc1cccc(CNC(=O)c2cc(-c3nnn(C[C@H]4CC[C@H](C#N)CC4)n3)cc(C)n2)c1 , tested on Stromelysin-1 (Homo sapiens, UniProt P08254), Ki: 7.21 µM
